- MEASUREMENT_TARGET: Carbonic anhydrase 2 (Homo sapiens)
- ASSAY_NAME: Inhibition of recombinant human carbonic anhydrase2 preincubated for 10 mins followed by CO2 solution addition by phenol red dye based stopped flow CO2 hydration assay
MEASURED_ATTRIBUTE: Ki (µM)

STRUCTURE_SMILES_STRING | MEASURED_ATTRIBUTE | RESULT_NUMBER
Nc1ccccc1NC(=O)/C=C/c1sc(N2CCOCC2)nc1-c1ccc([N+](=O)[O-])cc1 | Ki | 77.7
COc1ccc(NC(=O)/C=C/c2sc(N3CCOCC3)nc2-c2ccc(Cl)cc2)cc1 | Ki | 50.4

[a] O=C(/C=C/c1sc(N2CCOCC2)nc1-c1ccc(Cl)cc1)Nc1ccc(Br)cc1
[b] O=C(/C=C/c1sc(N2CCOCC2)nc1-c1ccc([N+](=O)[O-])cc1)Nc1ccc(Br)cc1
Exercise: Choose between a and b : whose measured Ki value is numerically larger? // output: label of the selected item
Solution: a

====

Ki values, listed per item
- MEASUREMENT_TARGET: Carbonic anhydrase 9 (Homo sapiens)
- ASSAY_NAME: Inhibition of recombinant human carbonic anhydrase9 preincubated for 10 mins followed by CO2 solution addition by phenol red dye based stopped flow CO2 hydration assay

STRUCTURE_SMILES_STRING | RESULT
COc1cc(NC(=O)/C=C/c2sc(N3CCOCC3)nc2-c2ccc(Cl)cc2)cc(OC)c1OC | > 100 µM
COc1ccc(-c2nc(N3CCOCC3)sc2/C=C/C(=O)Nc2ccc(OC)c(OC)c2)cc1 | > 100 µM
COc1ccc(NC(=O)/C=C/c2sc(N3CCOCC3)nc2-c2ccc(Cl)cc2)cc1OC | > 100 µM
Nc1ccccc1NC(=O)/C=C/c1sc(N2CCOCC2)nc1-c1ccc(Cl)cc1 | > 100 µM
COc1cc(NC(=O)/C=C/c2sc(N3CCOCC3)nc2-c2ccccc2)cc(OC)c1OC | > 100 µM

Exercise: What value of Ki has been reported for the following molecule? COc1ccc(NC(=O)/C=C/c2sc(N3CCOCC3)nc2-c2ccc(OC)cc2)cc1
Solution: > 100 µM

Exercise: Let us now turn to Nc1ccccc1NC(=O)/C=C/c1sc(N2CCOCC2)nc1-c1ccccc1
Solution: > 100 µM

Exercise: Let us now turn to COc1ccc(-c2nc(N3CCOCC3)sc2/C=C/C(=O)Nc2ccc(Br)cc2)cc1
Solution: > 100 µM

Exercise: Let us now turn to O=C(/C=C/c1sc(N2CCOCC2)nc1-c1ccc(Cl)cc1)Nc1ccc(Br)cc1
Solution: 96.5 µM

====

- MEASUREMENT_TARGET: Carbonic anhydrase 12 (Homo sapiens, UniProt O43570)
- Sequence (O43570 whole entry): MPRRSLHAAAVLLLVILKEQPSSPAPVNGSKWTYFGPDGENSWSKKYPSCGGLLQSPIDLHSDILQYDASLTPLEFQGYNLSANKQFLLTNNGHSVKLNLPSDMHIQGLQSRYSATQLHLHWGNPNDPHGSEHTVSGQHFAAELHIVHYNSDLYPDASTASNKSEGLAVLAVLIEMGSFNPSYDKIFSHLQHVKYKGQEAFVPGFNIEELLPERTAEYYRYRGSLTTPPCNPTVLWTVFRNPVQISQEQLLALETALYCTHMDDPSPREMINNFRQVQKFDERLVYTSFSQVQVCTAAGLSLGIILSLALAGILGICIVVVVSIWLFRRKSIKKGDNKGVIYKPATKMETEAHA
- ASSAY_NAME: Inhibition of recombinant human carbonic anhydrase12 preincubated for 10 mins followed by CO2 solution addition by phenol red dye based stopped flow CO2 hydration assay
Ki values, listed per item

Example molecules with recorded Ki:
STRUCTURE_SMILES_STRING | Ki
O=C(/C=C/c1sc(N2CCOCC2)nc1-c1ccc(Cl)cc1)Nc1ccc(Br)cc1 | > 100 µM
COc1ccc(-c2nc(N3CCOCC3)sc2/C=C/C(=O)Nc2ccc(Br)cc2)cc1 | > 100 µM
COc1ccc(NC(=O)/C=C/c2sc(N3CCOCC3)nc2-c2ccc(OC)cc2)cc1 | > 100 µM
Nc1ccccc1NC(=O)/C=C/c1sc(N2CCOCC2)nc1-c1ccc([N+](=O)[O-])cc1 | > 100 µM
COc1cc(NC(=O)/C=C/c2sc(N3CCOCC3)nc2-c2ccccc2)cc(OC)c1OC | > 100 µM
O=C(/C=C/c1sc(N2CCOCC2)nc1-c1ccccc1)Nc1ccc(Br)cc1 | > 100 µM
COc1ccc(NC(=O)/C=C/c2sc(N3CCOCC3)nc2-c2ccccc2)cc1 | > 100 µM
COc1ccc(NC(=O)/C=C/c2sc(N3CCOCC3)nc2-c2ccc([N+](=O)[O-])cc2)cc1 | 4.6 µM
COc1ccc(NC(=O)/C=C/c2sc(N3CCOCC3)nc2-c2ccc(Cl)cc2)cc1OC | > 100 µM
COc1ccc(NC(=O)/C=C/c2sc(N3CCOCC3)nc2-c2ccc([N+](=O)[O-])cc2)cc1OC | > 100 µM

Exercise: What value of Ki has been reported for the following molecule? COc1ccc(-c2nc(N3CCOCC3)sc2/C=C/C(=O)Nc2cc(OC)c(OC)c(OC)c2)cc1
Solution: > 100 µM

Exercise: Let us now turn to COc1ccc(NC(=O)/C=C/c2sc(N3CCOCC3)nc2-c2ccc(Cl)cc2)cc1
Solution: 7.5 µM

Exercise: Let us now turn to Nc1ccccc1NC(=O)/C=C/c1sc(N2CCOCC2)nc1-c1ccc(Cl)cc1
Solution: > 100 µM

Exercise: Let us now turn to COc1ccc(-c2nc(N3CCOCC3)sc2/C=C/C(=O)Nc2ccc(OC)c(OC)c2)cc1
Solution: > 100 µM

Exercise: Let us now turn to COc1ccc(NC(=O)/C=C/c2sc(N3CCOCC3)nc2-c2ccccc2)cc1OC
Solution: > 100 µM
